- study.target: ERRα ligand binding domain (ERRα-LBD) (Homo sapiens (Human), UniProt P11474)
- Sequence (P11474 193-421): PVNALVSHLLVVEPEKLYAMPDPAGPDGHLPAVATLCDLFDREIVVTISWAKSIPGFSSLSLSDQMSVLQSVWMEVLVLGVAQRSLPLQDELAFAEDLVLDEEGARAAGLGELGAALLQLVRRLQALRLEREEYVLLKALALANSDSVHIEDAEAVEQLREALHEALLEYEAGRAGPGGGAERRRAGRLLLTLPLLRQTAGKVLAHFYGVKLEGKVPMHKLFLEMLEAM
- assay.details: ERRα AlphaScreen Assay
- Assay type: biochemical
- condition.details: disruption of binding of ERRα-LBD protein to biotin-PGC1α-3 co-activator peptide; read-out: mean pIC50 (converted)
measured.metric: IC50

Some solved entries appear below for comparison.
>  <compound>
O=C1CC(c2ccc(OCc3ccccc3C(F)(F)F)c(C(F)(F)F)c2)c2c[nH]nc2N1 (stereo not shown) [Example 76]

>  <IC50>
0.1 to 1 µM

$$$$
>  <compound>
COc1cc(C2CC(=O)Nc3n[nH]cc32)c(F)cc1OCc1cccc(F)c1C(F)(F)F (stereo not shown) [Example 77]

>  <IC50>
0.1 to 1 µM

$$$$
>  <compound>
COc1ccc(COc2ccc(C3CC(=O)Nc4[nH]nnc43)cc2OC)c(C(F)(F)F)c1 (single isomer, unassigned; (+)) [Example 201]

>  <IC50>
0.01 to 0.1 µM

$$$$
>  <compound>
COc1cc(C2CC(=O)Nc3n[nH]cc32)ccc1OCc1ccc(C(C)=O)cc1C(F)(F)F (single isomer, unassigned; (+)) [Example 199]

>  <IC50>
0.1 to 1 µM

$$$$
>  <compound>
COc1cc(C2CC(=O)Nc3c[nH]nc32)ccc1OCc1ccc(N)cc1C(F)(F)F (stereo not shown) [Example 137]

>  <IC50>
0.1 to 1 µM

$$$$
>  <compound>
COc1cc(C2CC(=O)Nc3n[nH]cc32)ccc1OCc1ccc(C#N)cc1C(F)(F)F (stereo not shown) [Example 105]

>  <IC50>
0.01 to 0.1 µM

$$$$
>  <compound>
COc1cc(C2CC(=O)Nc3n[nH]nc32)ccc1OCc1ccc(N)cc1C(F)(F)F (single isomer, unassigned; (-)) [Example 206]

>  <IC50>
0.01 to 0.1 µM

$$$$
>  <compound>
COc1cc(C2CC(=O)Nc3n[nH]cc32)ccc1OCc1ccccc1C(F)F (stereo not shown) [Example 49]

>  <IC50>
0.1 to 1 µM

$$$$
>  <compound>
COc1cc(C2CC(=O)Nc3n[nH]cc32)ccc1OCc1cccc2c1OCCCO2 (stereo not shown) [Example 51]

>  <IC50>
0.1 to 1 µM

$$$$
>  <compound>
O=C1CC(c2ccc(OCc3ccccc3Br)cc2)c2c[nH]nc2N1 (stereo not shown) [Example 58]

>  <IC50>
0.1 to 1 µM

$$$$

Task: Please look up its IC50: COc1cc(C2CC(=O)Nc3c[nH]nc32)ccc1OCc1ccc(C(C)=O)cc1C(F)(F)F (stereo not shown) [Example 94]
Output: 0.1 to 1 µM

Task: Try this compound next: COc1cc(-c2cc(=O)[nH]c3[nH]ccc23)ccc1OCc1ccccc1C(F)(F)F [Example 168]
Output: 0.1 to 1 µM

Task: Try this compound next: O=C1CC(c2ccc(OCc3ccccc3C(F)(F)F)cc2)c2c[nH]nc2N1 (stereo not shown) [Example 59]
Output: 0.01 to 0.1 µM

Task: Try this compound next: COc1cc(C2CC(=O)Nc3n[nH]cc32)ccc1OCc1cccc(Cl)c1Cl (stereo not shown) [Example 22]
Output: 0.1 to 1 µM

Task: Try this compound next: COc1cc(-c2cc(=O)[nH]c3n[nH]cc23)ccc1OCc1ccc(C#N)cc1C(F)(F)F [Example 181]
Output: 0.01 to 0.1 µM

Task: Try this compound next: COc1cc(C2CC(=O)Nc3n[nH]cc32)ccc1OCc1ccc(CCN)cc1C(F)(F)F (stereo not shown) [Example 150]
Output: 0.1 to 1 µM
